Data origin, for the record: paper PMC9589286

system: Staphylococcus aureus; assay: Checkerboard assay with antibiotics; type: cell-based; conditions: combination of the antibiotic with Ru-3, S. aureus
measurement.label: FICI
When you answer, write just the number.

Below, each entry is followed by its recorded FICI result.
compound	quantitative.readout
O=C(N[C@H](CO)[C@H](O)c1ccc([N+](=O)[O-])cc1)C(Cl)Cl [Chloramphenicol]	0.50
CNC(C)C1CCC(N)C(OC2C(N)CC(N)C(OC3OCC(C)(O)C(NC)C3O)C2O)O1 (stereo not drawn) [Gentamicin]	0.38
CC1(C)S[C@@H]2[C@H](NC(=O)[C@H](N)c3ccccc3)C(=O)N2[C@H]1C(=O)O [Ampicillin, reference compound]	0.38

(Q) Look at this compound and give its reported FICI. CN(C)[C@@H]1C(O)=C(C(N)=O)C(=O)[C@@]2(O)C(O)=C3C(=O)c4c(O)cccc4[C@@](C)(O)[C@H]3C[C@@H]12 [Tetracycline]
(A) 0.50

(Q) Similarly, NC[C@H]1O[C@H](O[C@H]2[C@H](O)[C@@H](O[C@H]3O[C@H](CO)[C@@H](O)[C@H](N)[C@H]3O)[C@H](N)C[C@@H]2N)[C@H](O)[C@@H](O)[C@@H]1O [Kanamycin] ?
(A) 0.38

(Q) // next record CN[C@H](CC(C)C)C(=O)N[C@H]1C(=O)N[C@@H](CC(N)=O)C(=O)N[C@H]2C(=O)N[C@H]3C(=O)N[C@H](C(=O)N[C@H](C(=O)O)c4cc(O)cc(O)c4-c4cc3ccc4O)[C@H](O)c3ccc(c(Cl)c3)Oc3cc2cc(c3O[C@@H]2O[C@H](CO)[C@@H](O)[C@H](O)[C@H]2O[C@H]2C[C@](C)(N)[C@H](O)[C@H](C)O2)Oc2ccc(cc2Cl)[C@H]1O [Vancomycin]
(A) 1.00
